- Experiment description: Dose-escalation study of Compound 1 pharmacokinetics in subjects with advanced malignancies (tablets of Formulations 1 and/or 3, fasted; food effect cohort)
- Assay type: in vivo, human
- Stated conditions: human, plasma, oral, 500 mg, 500 mg BID, steady state, mean ± SD; read-out: AUC0-t
Observed property: AUC(0-t) (µM·h)
Answers are plain numbers, in µM·h.

What the record says about NS(=O)(=O)NCCNc1nonc1C(=NO)Nc1ccc(F)c(Br)c1 [Compound 1] : AUC(0-t) is 18.2

====

- Experiment description: Pharmacokinetics of Compound 1 in combination with MK-3475 in subjects with various cancers
- Type: in vivo, human
- Stated conditions: human, plasma, oral, 100 mg BID, All diagnoses, steady state C1D8, geometric mean; read-out: AUC0-12 h (converted)
Observed property: AUC(0-t) (µM·h)
Numbers only, in µM·h.

What the record says about `NS(=O)(=O)NCCNc1nonc1C(=NO)Nc1ccc(F)c(Br)c1` : AUC(0-t) is 4.26
